Target: T1, LILRB1-ECD-HIS (SinoBiological Cat #: 16014-H02H) (human, UniProt Q8NHL6 24-461)
T1 construct: Bought protein; also called monomeric antigen LILRB1-ECD-HIS; not shown: His tag
T1 sequence (Q8NHL6 other isoform, or with tags, fused parts or gaps H02H H02H): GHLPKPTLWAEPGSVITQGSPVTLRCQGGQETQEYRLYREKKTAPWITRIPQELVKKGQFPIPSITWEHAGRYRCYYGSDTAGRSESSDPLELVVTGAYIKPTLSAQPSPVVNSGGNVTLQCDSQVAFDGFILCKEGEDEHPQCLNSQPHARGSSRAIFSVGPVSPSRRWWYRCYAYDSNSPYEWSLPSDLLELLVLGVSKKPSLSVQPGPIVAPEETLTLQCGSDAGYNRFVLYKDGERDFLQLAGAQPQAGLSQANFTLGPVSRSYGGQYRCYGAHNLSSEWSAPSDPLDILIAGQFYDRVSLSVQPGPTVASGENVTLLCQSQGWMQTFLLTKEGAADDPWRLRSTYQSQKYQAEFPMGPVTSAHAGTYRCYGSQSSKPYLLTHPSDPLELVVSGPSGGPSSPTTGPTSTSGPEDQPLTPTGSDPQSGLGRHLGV
Test: SPR (Carterra LSA), antibody captured, antigen injected;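 further: kd obtained from kinetic analysis of antibody binding to the antigen, with association and dissociation phases fitted in the instrument software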
For each of the binders below, state its pKd.
One number for each entry, as −log10 of the molar value.

binder: #11 (antibody, human IgG1, V domains shown, also called D2M002-011) VH: EVQLQQSGAELMKPGASVKISCKATGYTFSNYWIEWVKQRPGHGLEWIGEILPGSGSTDYNEKFEGKATFTADTSSNTAYMQLSSLTSEDSAVYYCARSGAGGYDSGAFAYWGQGTLVTVSA VL: DIQMTQSPASLAVSLGQRATISCRASESVDTYGNSFMHWYQQKPGQPPKLLIYRTSNLESGIPARFSGSGSRTDFTLTINPVEADDVATYYCQQSNEDPWTFGGGTKLEIK
pKd: 9.38
//
binder: #29 (antibody, human IgG1, V domains shown, also called D2M002-029) VH: EVQLQQSGAEVKKPGASVKISCKATGYTFSSYWIEWVKQRPGHGLEWIGEILPGSGSTNYNEKFKGKATFTADTSSNTAYMQLSSLTSEDFTVYYCARSGAGGYDSGAFGYWGQGTLVTVSS VL: DIVMTQSPASLAVSLGQRATISCRASESIDTYGNSFMHWYQQKPGQPPKLLIYRASNLESGIPARFSGSGSRTDFTLTINPVEADDVATYYCQQSNEDPWTFGGGTKLEIK
pKd: 7.54

Give pKd for #40 (antibody, human IgG1, V domains shown, also called D2M002-040) VH: EVQLQQSGAELMKPGASVKISCKTTGNTFSSYWIEWVKQRPGHDLEWIGEILPGRGSTNNNEKFKGKAPFTADTSSNTAYMQLNSLTSEDSAVYYCARSGGGGYDSGAFAYWGQGTLVTVSA VL: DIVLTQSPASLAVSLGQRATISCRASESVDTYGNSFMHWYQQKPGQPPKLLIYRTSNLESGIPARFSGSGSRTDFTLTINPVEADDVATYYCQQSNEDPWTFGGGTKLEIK 7.46
